experiment: Half-life of PET-16 in plasma
property_measured: half-life

State its half-life: C(#C[P+](c1ccccc1)(c1ccccc1)c1ccccc1)c1ccccc1 [PET-16, reference compound]
< 30 min

###

target_entity: full length human HSP70 (Homo sapiens)
Sequence (P0DMV8 whole entry): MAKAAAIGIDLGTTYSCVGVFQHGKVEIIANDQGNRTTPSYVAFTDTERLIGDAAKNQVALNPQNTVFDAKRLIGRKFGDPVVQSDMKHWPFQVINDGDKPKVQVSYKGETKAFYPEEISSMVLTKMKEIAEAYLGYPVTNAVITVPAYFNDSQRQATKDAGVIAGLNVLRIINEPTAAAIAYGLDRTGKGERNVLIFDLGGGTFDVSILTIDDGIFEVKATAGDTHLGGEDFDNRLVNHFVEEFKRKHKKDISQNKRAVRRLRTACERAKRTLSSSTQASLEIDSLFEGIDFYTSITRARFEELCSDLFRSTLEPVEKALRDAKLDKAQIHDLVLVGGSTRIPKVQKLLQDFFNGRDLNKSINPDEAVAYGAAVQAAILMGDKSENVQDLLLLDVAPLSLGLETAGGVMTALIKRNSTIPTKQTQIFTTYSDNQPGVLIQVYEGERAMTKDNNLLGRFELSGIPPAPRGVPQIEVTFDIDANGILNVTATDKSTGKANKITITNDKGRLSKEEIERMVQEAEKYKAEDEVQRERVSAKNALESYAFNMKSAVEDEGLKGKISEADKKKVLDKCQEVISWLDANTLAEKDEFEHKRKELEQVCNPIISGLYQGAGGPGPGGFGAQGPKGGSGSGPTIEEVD
property_measured: IC50

Give the observed IC50 of C(#C[P+](c1ccccc1)(c1ccccc1)c1ccccc1)c1ccccc1 [PET-16, reference compound] for full length human HSP70 (Homo sapiens).
~3 µM

###

System: CRC cell lines (SW620, HT-29, HCT 116+/−p53, RKO, and LS411N)
experiment: Alamar Blue cell viability assay, human CRC panel
Type: cell-based
experimental_context: Homo sapiens; 72 hours; read-out: IC50, cytotoxicity in all CRC cell lines
property_measured: IC50

Fill in reported IC50 for this entry: c1ccc(-c2cn3nc(CCCCCC[P+](c4ccccc4)(c4ccccc4)c4ccccc4)sc3n2)cc1 [AP-4-139B]
1500 to 3000 nM
